Reference for the values: PubChem BioAssay (Tox21)

biological target: Estrogen receptor beta (Homo sapiens); experiment: qHTS assay to identify small molecule agonists of the estrogen receptor beta (ER-beta) signaling pathway (AID 1259377); details: ER-beta-UAS-bla HEK293T, beta-lactamase FRET ratio, 16 h; series mostly up to 92.4 µM
Inconclusive results are not listed. The source made the active and inactive calls. Calls follow the shape of the dose curve; as a rule, active = well fitted activation curve with a large enough effect in the signal ratio in the repeat runs (not every such curve was filed as active); inconclusive = weak or mixed curves, or effect the other way; inactive = flat fitted curve, though single readings scatter; the % refers to the signal ratio.
Measurement Kind: activation

Consider the worked cases shown below.
Test Smiles: CC(C)(C)c1ccc(N)cc1
Measurement Kind: activation
Experimental Value: inactive
--
Test Smiles: CN(C)c1ccncc1
Measurement Kind: activation
Experimental Value: inactive
--
Test Smiles: COc1ccc(Cl)cc1C
Measurement Kind: activation
Experimental Value: inactive
--
Test Smiles: Cc1nc2ccc(Cl)cc2[nH]1
Measurement Kind: activation
Experimental Value: inactive
--
Test Smiles: CCCOc1ccc(C(=O)OCCN(CC)CC)cc1N
Measurement Kind: activation
Experimental Value: inactive
--
Test Smiles: CCC(C)(C)C
Measurement Kind: activation
Experimental Value: inactive

// query Tell me the measured activation of "CCCCN(CCCC)CCCCCCN(CCCC)CCCC" , please.
// result inactive

// query What activation value was documented for this compound, "C/C=C(\C)C(=O)OC/C=C(\C)CCC=C(C)C" ?
// result inactive

// query Please report the recorded activation for "CC(C)(C)c1ccc(C(=O)CCCCl)cc1" .
// result inactive

// query Could you share which activation value was measured for "COc1cc(OC)cc(OC)c1" ?
// result inactive

// query Fill in: activation of "CC(C)(C)OC=O" is ___
// result inactive

// query Returns the measured activation for the input compound. Input: "C=CC(=O)CC"
// result inactive

// query What value of activation has been recorded for this entry: "C=CCN(CC=C)CC=C"
// result inactive
